Test: Selectivity index, ratio of IC50 for human HEK293 cells to MIC for Mycobacterium tuberculosis
Format: toxicity
Conditions: read-out: Selectivity Index
I'd appreciate it if you could supply selectivity ratio values for the items below.

# selectivity ratio lookup, item Cc1nnsc1C(=O)Nc1nc2cc(-c3ccccn3)ccc2o1
> 270

# selectivity ratio lookup, item Cc1nnsc1C(=O)Nc1nc2cc(C(C)(C)C)ccc2o1
17

# selectivity ratio lookup, item Cc1nnsc1C(=O)Nc1nc2c(Oc3ncccn3)cccc2o1
> 18

# selectivity ratio lookup, item Cc1nnsc1C(=O)Nc1nc2cc(Cl)ccc2o1
4

====

I'd appreciate it if you could supply Tmax values for the items below.
Test: Tmax in Sprague-Dawley rat at 40 mg/kg, po measured upto 8 hrs by LC-MS/MS analysis
Type: ADME, organism-based
Details: in vivo

# Tmax lookup, item Cc1nnsc1C(=O)Nc1nc2cc(-c3ccccn3)ccc2o1
≥ 8 h

# Tmax lookup, item Cc1nnsc1C(=O)Nc1nc2c(Oc3ncccn3)cccc2o1
2.83 h

# Tmax lookup, item Cc1nnsc1C(=O)Nc1nc2cc(C(C)(C)C)ccc2o1
≥ 8 h

====

Experiment: Cmax in Sprague-Dawley rat at 40 mg/kg, po measured upto 8 hrs by LC-MS/MS analysis
Type: ADME, organism-based
Set-up: route oral, dose 40 mg/kg, time <=8
Conditions: in vivo
measurement_name: Cmax (µg/mL)
Answer with a number only, understood to be in µg/mL.

# Cmax lookup, item Cc1nnsc1C(=O)Nc1nc2cc(-c3ccccn3)ccc2o1
9.05

# Cmax lookup, item Cc1nnsc1C(=O)Nc1nc2cc(C(C)(C)C)ccc2o1
6.84

# Cmax lookup, item Cc1nnsc1C(=O)Nc1nc2c(Oc3ncccn3)cccc2o1
0.00693

====

Assay: Mean residence time in Sprague-Dawley rat at 40 mg/kg, po measured upto 8 hrs by LC-MS/MS analysis
Type: ADME, organism-based
Conditions: in vivo
measurement_name: MRT

# MRT lookup, item Cc1nnsc1C(=O)Nc1nc2cc(-c3ccccn3)ccc2o1
5.59 h

# MRT lookup, item Cc1nnsc1C(=O)Nc1nc2c(Oc3ncccn3)cccc2o1
4.12 h

# MRT lookup, item Cc1nnsc1C(=O)Nc1nc2cc(C(C)(C)C)ccc2o1
5.26 h

====

I'd appreciate it if you could supply AUC(0-t) at 8 h values for the items below.
Test: AUC (0 to t) in Sprague-Dawley rat at 40 mg/kg, po measured upto 8 hrs by LC-MS/MS analysis
Format: ADME, organism-based
Set-up: route oral, dose 40 mg/kg, time <=8
Details: in vivo
Answer with a number only, understood to be in ng·h/mL.

# AUC(0-t) at 8 h lookup, item Cc1nnsc1C(=O)Nc1nc2cc(C(C)(C)C)ccc2o1
24800

# AUC(0-t) at 8 h lookup, item Cc1nnsc1C(=O)Nc1nc2cc(-c3ccccn3)ccc2o1
27800

# AUC(0-t) at 8 h lookup, item Cc1nnsc1C(=O)Nc1nc2c(Oc3ncccn3)cccc2o1
38
